Examples of compounds with documented pIC50 follow.
# Tested on: Kasumi-1 cells
# assay_remarks: Cell viability assay (CellTiter-Glo) in Kasumi-1 cells
# Type: cell-based
# settings: Homo sapiens, 72 h; Kasumi-1, AML; cell viability, 3 days
Lab note: report pIC50 as minus log10 of the concentration in molar units, number only.

Sample answers from the record:
CS(=O)(=O)c1ccc(-c2cccc3nc(Nc4ccc(N5CCN(CC(=O)NCCCCCCCCNc6ccc7c(c6)C(=O)N(C6CCC(=O)NC6=O)C7=O)CC5)cc4)nn23)cc1 (stereo not drawn) :: 7.16
Cc1cnc(Nc2ccc(N3CCN(C)CC3)cc2)nc1Nc1cccc(S(=O)(=O)NC(C)(C)C)c1 [TG101209, reference compound] :: 6.28

API: the following record is the query input.
Q) Give the measured pIC50 for O=C1CCC(N2C(=O)c3ccc(NCCCCCC(=O)N4CCC(n5cc(-c6cnc7cccc(-c8cc(F)c(CN9CCOCC9)c(F)c8)c7n6)cn5)CC4)cc3C2=O)C(=O)N1 (stereo not drawn)
A) 7.06

----------
# Test system: WSU-DLCL2 cells
# assay_remarks: Cell viability assay (CellTiter-Glo) in WSU-DLCL2 cells
# Type: cell-based
# settings: Homo sapiens, WSUDLCL2, 72 h, WSU-DLCL2, DLBCL, 3 days
quantity_name: IC50

Would you please look over these solved cases?
O=C1CCC(N2C(=O)c3ccc(NCCCCCC(=O)N4CCC(n5cc(-c6cnc7cccc(-c8cc(F)c(CN9CCOCC9)c(F)c8)c7n6)cn5)CC4)cc3C2=O)C(=O)N1 (stereo not drawn) :: 106 nM
CS(=O)(=O)c1ccc(-c2cccc3nc(Nc4ccc(N5CCN(CC(=O)NCCCCCCCCNc6ccc7c(c6)C(=O)N(C6CCC(=O)NC6=O)C7=O)CC5)cc4)nn23)cc1 (stereo not drawn) :: 168 nM

Q) Give the reported value of IC50 for this record: Cc1cnc(Nc2ccc(N3CCN(C)CC3)cc2)nc1Nc1cccc(S(=O)(=O)NC(C)(C)C)c1 [TG101209, reference compound]
A) 1070 nM

----------
# Tested on: Pfeiffer cells
# assay_remarks: Cell viability assay (CellTiter-Glo) in Pfeiffer cells
# Assay type: cell-based
# settings: DLBCL, 3 days
quantity_name: IC50

Q) Hello, please tell me recorded IC50 for this one: Fc1cc(-c2cccc3ncc(-c4cnn(C5CCNCC5)c4)nc23)cc(F)c1CN1CCOCC1 [NVP-BSK805, reference compound]
A) > 10 µM
